meta.source: ChEMBL document CHEMBL3997824

tested on: Trypanosoma brucei; assay: Inhibition of recombinant Trypanosoma brucei rhodesain at 100 uM using Z-phe-Arg-amidomethylcoumarin as substrate by fluorometric method relative to control
attribute-measured: inhibition

# smiles-repr, measurement-target, attribute-measured, endpoint-result
data = [
    ("Clc1ccc2[nH]c(CNCc3ccccc3)cc2c1", "Trypanosoma brucei", "inhibition", "5%"),
    ("c1c[nH]c(CNCCCN2CCOCC2)c1", "Trypanosoma brucei", "inhibition", "15.1%"),
    ("Clc1ccc2c(NCCCN3CCOCC3)ccnc2c1", "Trypanosoma brucei", "inhibition", "51%"),
    ("Clc1ccc2c(NCc3ccccc3)ccnc2c1", "Trypanosoma brucei", "inhibition", "71%"),
    ("c1cc(NCCCN2CCOCC2)ncn1", "Trypanosoma brucei", "inhibition", "5%"),
    ("O=C(CN1CCc2ccccc2C1)Nc1ccc(Cl)cc1", "Trypanosoma brucei", "inhibition", "20.5%"),
    ("O=C(CN1CCc2ccccc2C1)Nc1ccccc1", "Trypanosoma brucei", "inhibition", "19.1%"),
    ("OCCCNc1ccnc2cc(Cl)ccc12", "Trypanosoma brucei", "inhibition", "63%"),
    ("Clc1ccc2c(NCCN3CCCCC3)ccnc2c1", "Trypanosoma brucei", "inhibition", "56%"),
    ("c1ccc2[nH]c(CNC3CCCCC3)cc2c1", "Trypanosoma brucei", "inhibition", "8%"),
    ("c1ccc(CNCc2cc3ccccc3[nH]2)cc1", "Trypanosoma brucei", "inhibition", "8%"),
    ("CCCNc1ccnc2cc(Cl)ccc12", "Trypanosoma brucei", "inhibition", "49%"),
    ("CN1CCN(CC(=O)Nc2ccccc2)CC1", "Trypanosoma brucei", "inhibition", "7.4%"),
    ("Clc1ccc2c(NCCCN3CCCCC3)ccnc2c1", "Trypanosoma brucei", "inhibition", "61%"),
    ("CN1CCN(CC(=O)Nc2ccc(Cl)cc2)CC1", "Trypanosoma brucei", "inhibition", "22.6%"),
    ("OCCNc1ccnc2cc(Cl)ccc12", "Trypanosoma brucei", "inhibition", "61%"),
    ("CN1CCN(Cc2ccc[nH]2)CC1", "Trypanosoma brucei", "inhibition", "32.1%"),
    ("O=C(CNc1ccnc2cc(Cl)ccc12)N1CCOCC1", "Trypanosoma brucei", "inhibition", "61%"),
    ("CN1CCN(c2ccncn2)CC1", "Trypanosoma brucei", "inhibition", "13%"),
    ("Clc1ccc2c(NCCN3CCOCC3)ccnc2c1", "Trypanosoma brucei", "inhibition", "61%"),
    ("Cc1ccc(NC(=O)CN2CCN(C)CC2)cc1", "Trypanosoma brucei", "inhibition", "15.5%"),
    ("c1c[nH]c(CN2CCOCC2)c1", "Trypanosoma brucei", "inhibition", "66.7%"),
    ("c1ccc2c(c1)CCN(c1ccncn1)C2", "Trypanosoma brucei", "inhibition", "20%"),
    ("c1c[nH]c(CN2CCc3ccccc3C2)c1", "Trypanosoma brucei", "inhibition", "49.1%"),
    ("O=C(CNCCCN1CCOCC1)Nc1ccccc1", "Trypanosoma brucei", "inhibition", "7.4%"),
    ("Cc1ccc(NC(=O)CNCCCN2CCOCC2)cc1", "Trypanosoma brucei", "inhibition", "13.1%"),
    ("O=C(CNCCCN1CCOCC1)Nc1ccc(Cl)cc1", "Trypanosoma brucei", "inhibition", "21%"),
    ("Cc1ccc(NC(=O)CN2CCc3ccccc3C2)cc1", "Trypanosoma brucei", "inhibition", "16.7%"),
    ("Clc1ccc2[nH]c(CNC3CCCCC3)cc2c1", "Trypanosoma brucei", "inhibition", "4%"),
    ("Clc1ccc2[nH]c(CNCCCN3CCOCC3)cc2c1", "Trypanosoma brucei", "inhibition", "1%"),
    ("c1ccc2[nH]c(CNCCCN3CCOCC3)cc2c1", "Trypanosoma brucei", "inhibition", "7%"),
]
